# system-tested: Skeletal Myofibril ATPase (Rabbit Psoas myofibrils)
# procedure-text: Skeletal Myofibril ATPase Assay
# protocol-conditions: PK/LDH-coupled NADH absorbance at 340 nm
quantity-measured: IC50

Input line: Record lookup: for Skeletal Myofibril ATPase (Rabbit Psoas myofibrils), what IC50 belongs to O=c1ccc(-n2cncn2)nn1Cc1ccc(Cl)cc1 ?
Output line: 10 to 100 µM

Further cases:
Input line: Record lookup: for Skeletal Myofibril ATPase (Rabbit Psoas myofibrils), what IC50 belongs to O=c1ccc(-n2cncn2)nn1Cc1cccc(Cl)c1 ?
Output line: 10 to 100 µM

Input line: Repeat with O=C(Cn1nc(-c2nnc(-c3cccc(Cl)c3)s2)ccc1=O)NC1CCC1
Output line: ≤ 10 µM

Input line: Repeat with O=c1ccc(-c2nc(-c3ccc(F)cc3)no2)cn1Cc1cccnc1
Output line: ≤ 10 µM

Input line: Repeat with Cc1cccc(-c2noc(-c3ccc(=O)n(Cc4ccc(C#N)nc4)c3)n2)c1
Output line: ≤ 10 µM

Input line: Repeat with CCNC(=O)Cn1nc(-c2nc(-c3cc(F)cc(F)c3)no2)ccc1=O
Output line: ≤ 10 µM

* * *

# system-tested: Skeletal Myofibril ATPase (Rabbit Psoas myofibrils)
# procedure-text: Skeletal Myofibril ATPase Assay
# protocol-conditions: PK/LDH-coupled NADH absorbance at 340 nm
pIC50: −log10 of the molar value.
The entries below come with measured pIC50 values attached.

Solved cases (5 shown):
Input line: Record lookup: for Skeletal Myofibril ATPase (Rabbit Psoas myofibrils), what pIC50 belongs to COc1ccc(NC(=O)Cn2nc(-c3cccs3)ccc2=O)cc1 ?
Output line: 4.00 to 5.00

Input line: Repeat with Cn1cc(-c2ccc(=O)n(CC(=O)NCc3ccccc3Cl)n2)cn1
Output line: 4.00 to 5.00

Input line: Repeat with COc1ccc(Cn2cc(-c3nc(-c4cccc(C)c4)no3)ccc2=O)cn1
Output line: ≥ 5.00

Input line: Repeat with O=C(Cn1nc(-c2cccs2)ccc1=O)Nc1ccccc1F
Output line: 4.00 to 5.00

Input line: Repeat with CCNC(=O)Cn1nc(-c2nc(-c3cc(Cl)ccc3F)no2)ccc1=O
Output line: ≥ 5.00

Further cases:
Input line: Record lookup: for Skeletal Myofibril ATPase (Rabbit Psoas myofibrils), what pIC50 belongs to O=c1ccc(-c2nc(-c3cccc(F)c3)no2)cn1Cc1cncnc1 ?
Output line: ≥ 5.00

Input line: Repeat with Cn1cnc(-c2ccc(=O)n(CC(=O)NCc3ccccc3Cl)n2)c1
Output line: < 4.00

Input line: Repeat with Cc1cccc(-c2noc(-c3ccc(=O)n(Cc4cccnc4C)c3)n2)c1
Output line: < 3.92

Input line: Repeat with CC(C)NC(=O)Cn1nc(-c2cccs2)ccc1=O
Output line: < 4.00

Input line: Repeat with Cc1ccc(-c2noc(-c3ccc(=O)n(Cc4cccc(F)c4)n3)n2)cc1
Output line: < 4.00

Input line: Repeat with COc1ncccc1Cn1cc(-c2nc(-c3cccc(C)c3)no2)ccc1=O
Output line: < 3.92

Input line: Repeat with O=C(Cn1nc(-c2nnc(-c3cc(Cl)ccc3Cl)s2)ccc1=O)NC1CCC1
Output line: ≥ 5.00

Input line: Repeat with O=c1ccc(-c2cccs2)nn1Cc1cccc(F)c1
Output line: 4.00 to 5.00

* * *

The entries below come with measured pIC50 values attached.
# system-tested: Skeletal Myofibril ATPase (Rabbit Psoas myofibrils)
# procedure-text: Skeletal Myofibril ATPase Assay
# protocol-conditions: PK/LDH-coupled NADH absorbance at 340 nm
pIC50: −log10 of the molar value.

Solved cases (10 shown):
Input line: GET /values?readout=pIC50&item= Cc1cncc(Cn2cc(-c3nc(-c4cccc(C)c4)no3)ccc2=O)c1
Output line: ≥ 5.00

Input line: Repeat with COc1cccc(-c2noc(-c3ccc(=O)n(Cc4cccnc4)c3)n2)c1
Output line: ≥ 5.00

Input line: Repeat with O=c1ccc(-c2nc(-c3cccnc3)no2)nn1Cc1ccccc1
Output line: 4.00 to 5.00

Input line: Repeat with CCNC(=O)Cn1nc(-c2noc(-c3cccc(Cl)c3)n2)ccc1=O
Output line: ≥ 5.00

Input line: Repeat with CCNC(=O)Cn1nc(-c2nc(C3CC3)no2)ccc1=O
Output line: 4.00 to 5.00

Input line: Repeat with CCNC(=O)Cn1nc(-c2ncc(-c3cccc(Cl)c3)o2)ccc1=O
Output line: ≥ 5.00

Input line: Repeat with O=c1ccc(-c2nc(-c3ccccc3)no2)cn1Cc1cccnc1
Output line: 4.00 to 5.00

Input line: Repeat with Cc1cccc(-c2noc(-c3ccc(=O)n(Cc4ncc(C)s4)c3)n2)c1
Output line: ≥ 5.00

Input line: Repeat with Cc1ccc(-c2ccc(=O)n(CC(=O)NC3CCCC3)n2)s1
Output line: 4.00 to 5.00

Input line: Repeat with CCNC(=O)Cn1nc(-c2nc(-c3cncc(Cl)c3)no2)ccc1=O
Output line: ≥ 5.00

Further cases:
Input line: GET /values?readout=pIC50&item= O=c1ccc(-c2nc(-c3cccnc3)no2)nn1Cc1ccccc1F
Output line: 4.00 to 5.00

Input line: Repeat with Cc1cccc(-c2noc(-c3ccc(=O)n(Cc4cccnc4)c3)n2)c1 [Compound 94]
Output line: ≥ 5.00

Input line: Repeat with CCCn1nc(-c2nc(COc3ccccc3)no2)ccc1=O
Output line: 4.00 to 5.00
